Values from ChEMBL document CHEMBL1158627

# Voltage-gated inwardly rectifying potassium channel KCNH2 (Homo sapiens, UniProt Q12809): pKi values follow
# Sequence (Q12809 whole entry): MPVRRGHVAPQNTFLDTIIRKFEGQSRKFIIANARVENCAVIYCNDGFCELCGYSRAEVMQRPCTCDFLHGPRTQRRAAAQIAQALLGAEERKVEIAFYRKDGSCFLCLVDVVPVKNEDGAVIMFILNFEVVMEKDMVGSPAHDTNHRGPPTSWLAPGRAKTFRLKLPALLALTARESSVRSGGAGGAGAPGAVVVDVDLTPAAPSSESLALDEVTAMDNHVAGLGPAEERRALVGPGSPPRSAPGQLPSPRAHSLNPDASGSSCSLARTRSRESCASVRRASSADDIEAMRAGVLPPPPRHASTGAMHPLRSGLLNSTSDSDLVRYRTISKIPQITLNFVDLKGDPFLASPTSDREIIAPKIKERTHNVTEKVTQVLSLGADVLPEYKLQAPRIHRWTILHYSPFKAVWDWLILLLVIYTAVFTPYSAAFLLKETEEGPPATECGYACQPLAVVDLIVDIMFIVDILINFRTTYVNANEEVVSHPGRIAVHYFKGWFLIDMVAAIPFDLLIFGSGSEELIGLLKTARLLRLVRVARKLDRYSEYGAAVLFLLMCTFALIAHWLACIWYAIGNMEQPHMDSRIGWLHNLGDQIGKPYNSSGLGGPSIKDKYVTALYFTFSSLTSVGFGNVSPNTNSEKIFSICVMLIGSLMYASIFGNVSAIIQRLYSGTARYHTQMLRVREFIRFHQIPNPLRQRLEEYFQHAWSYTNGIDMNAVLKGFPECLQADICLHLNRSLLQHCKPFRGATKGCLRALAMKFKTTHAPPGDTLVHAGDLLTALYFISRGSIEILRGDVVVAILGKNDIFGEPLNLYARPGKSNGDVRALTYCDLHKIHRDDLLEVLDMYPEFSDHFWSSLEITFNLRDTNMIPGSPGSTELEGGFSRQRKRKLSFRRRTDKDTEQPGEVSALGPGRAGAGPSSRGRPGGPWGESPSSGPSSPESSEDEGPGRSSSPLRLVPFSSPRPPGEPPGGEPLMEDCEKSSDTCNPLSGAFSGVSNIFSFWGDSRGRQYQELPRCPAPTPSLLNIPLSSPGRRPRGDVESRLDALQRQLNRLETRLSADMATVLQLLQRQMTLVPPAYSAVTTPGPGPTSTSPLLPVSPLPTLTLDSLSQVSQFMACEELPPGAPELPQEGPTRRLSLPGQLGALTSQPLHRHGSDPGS
Remember, pKi is on a log scale: it is -log10 of the molar concentration.

Prompt: Item under review: CC(O)c1ccccc1S(=O)(=O)c1ccc(/C=C/c2ccc(F)cc2)cc1 (racemic) . Reported pKi?
Completion: 5.40

Prompt: # query: pKi of entry C[C@H](O)c1ccccc1S(=O)(=O)c1ccc(/C=C/c2ccc(F)cc2)cc1
Completion: 5.08

* * *

assay: Plasma concentration in rat at <1 mg/kg, po after 2 hrs; assay type: ADME, organism-based
assay_metric: concentration at 2 h (nM)
Give just the numeric value; nM need not be written.

Prompt: Given the entry C[C@H](O)c1ccccc1S(=O)(=O)c1ccc(/C=C/c2ccc(F)cc2)cc1 , report its measured concentration at 2 h.
Completion: 60
